tested on: Blumeria graminis; experiment: In vivo fungicidal activity, Wheat powdery mildew (WPM); conditions: 50 ppm spray; also: ranges in brackets are in %

molecule: CC(N=c1c(-c2ccc(F)cc2F)c(Cl)n(C)c2ncnn12)C(F)(F)F (stereo not drawn)
WPM disease control rating: 4 (45-59)

molecule: CCCn1c(Cl)c(-c2c(F)cc(OC)cc2F)c(=NC(C)C(F)(F)F)n2ncnc12 (stereo not drawn)
WPM disease control rating: 0 (0)

molecule: CC(N=c1c(-c2ccccc2Cl)c(Cl)nc2n(C)cnn12)C(F)(F)F (stereo not drawn)
WPM disease control rating: 0 (0)

molecule: CC(N=c1c(-c2ccccc2Cl)c(Cl)n(C)c2ncnn12)C(F)(F)F (stereo not drawn)
WPM disease control rating: 0 (0)

molecule: Cn1c(Cl)c(-c2c(F)cc(F)cc2F)c(=NCC(F)(F)F)n2ncnc12 [Example 1A]
WPM disease control rating: 7 (90-95)

molecule: COc1cc(F)c(-c2c(Cl)nc3n(C)cnn3c2=NC(C)C(F)(F)F)c(F)c1 (stereo not drawn)
WPM disease control rating: 3 (30-44)

molecule: CCn1cnn2c(=NC(C)C(F)(F)F)c(-c3c(F)cc(F)cc3F)c(Cl)nc12 (stereo not drawn)
WPM disease control rating: 0 (0)

molecule: CCn1c(Cl)c(-c2c(F)cc(F)cc2F)c(=NC(C)C(F)(F)F)n2ncnc12 (stereo not drawn)
WPM disease control rating: 0 (0)

molecule: Cn1c(Cl)c(-c2c(F)cc(F)cc2F)c(=NCC(F)(F)F)n2ncnc12 [Example 17]
WPM disease control rating: 2 (15-29)
